Biological target: Sodium-dependent phosphate transport protein 2B (Homo sapiens, UniProt O95436)
Sequence (O95436 whole entry): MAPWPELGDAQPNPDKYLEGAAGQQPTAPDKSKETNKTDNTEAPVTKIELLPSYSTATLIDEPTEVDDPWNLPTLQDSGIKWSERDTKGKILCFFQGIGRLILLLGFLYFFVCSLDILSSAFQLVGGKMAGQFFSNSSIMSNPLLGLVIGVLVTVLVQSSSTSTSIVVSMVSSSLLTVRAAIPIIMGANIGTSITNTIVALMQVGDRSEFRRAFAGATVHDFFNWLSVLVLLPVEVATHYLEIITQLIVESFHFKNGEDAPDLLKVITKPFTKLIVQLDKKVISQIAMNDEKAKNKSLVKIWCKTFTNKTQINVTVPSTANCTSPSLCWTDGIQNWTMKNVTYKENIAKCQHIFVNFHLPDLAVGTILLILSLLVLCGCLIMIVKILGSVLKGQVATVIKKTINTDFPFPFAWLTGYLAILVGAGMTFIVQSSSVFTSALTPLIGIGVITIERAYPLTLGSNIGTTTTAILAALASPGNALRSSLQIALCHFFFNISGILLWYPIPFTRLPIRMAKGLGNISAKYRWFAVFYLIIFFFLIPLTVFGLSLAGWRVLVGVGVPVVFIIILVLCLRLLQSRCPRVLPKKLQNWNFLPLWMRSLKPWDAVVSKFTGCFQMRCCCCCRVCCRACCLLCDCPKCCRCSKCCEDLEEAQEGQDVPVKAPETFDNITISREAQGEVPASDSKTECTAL
Assay: Inhibition of human NaPi2b expressed in KJMGER8 cells assessed as reduction in H2[33P]O4 uptake incubated for 60 mins by TopCount scintillation counting method
EXPERIMENTAL ENDPOINT: IC50 (µM)

CC1(C)CCc2c(sc(NC(=O)c3cccc(OCCOCCOCCOC[C@H](O)CN(CCO)CCO)c3)c2C(=O)N/N=C/c2ccc(Cl)c(C(F)(F)F)c2)C1 ... 0.083
O=C(Nc1sc2c(c1C(=O)N/N=C/c1ccc(Cl)c(C(F)(F)F)c1)CCCC2)c1cccc(CN2CCC(O)CC2)c1 ... 0.087
COCCN(CCOCCOCCOCCOCCOCCOCc1cccc(C(=O)Nc2sc3c(c2C(=O)N/N=C/c2ccc(Cl)c(C(F)(F)F)c2)CCC(C)(C)C3)c1)CC(=O)O ... 0.064
